Tested on: ADP-Induced platelet aggregation
Test: Inhibition of ADP-induced platelet aggregation, in vitro (platelet rich plasma)
Type: cell-based
Settings: Rattus norvegicus, compound preincubated 1 minute, read-out: Results (IC50 (Molar))
pIC50: −log10 of the molar value.
reported endpoint: pIC50

> print(dat)
                                   compound  reported.endpoint  experimental.value
1  CCCCC[C@H](O)/C=C/[C@@H]1[C@H]2C=C(C(F)COCC(=O)OC(C)(C)C)O[C@H]2C[C@H]1O (relative stereo)              pIC50                5.40

[a] CCCCC[C@H](O)/C=C/[C@@H]1[C@H]2C/C(=C/CCCC(=O)O)O[C@H]2C[C@H]1O
[b] CCCCC[C@H](O)/C=C/[C@@H]1[C@H]2C/C(=C/COCC(=O)OC(C)(C)C)O[C@H]2C[C@H]1O (relative stereo)
## Task Please tell me which of the two, a or b , has the higher reported pIC50 value. Identify your selection by its label.
## Result a
(a: 8.22, b: 6.00)
